# tgt: T1, hUPF1 (full-length) (Homo sapiens, UniProt Q92900-2 1-1118)
# T1 sequence: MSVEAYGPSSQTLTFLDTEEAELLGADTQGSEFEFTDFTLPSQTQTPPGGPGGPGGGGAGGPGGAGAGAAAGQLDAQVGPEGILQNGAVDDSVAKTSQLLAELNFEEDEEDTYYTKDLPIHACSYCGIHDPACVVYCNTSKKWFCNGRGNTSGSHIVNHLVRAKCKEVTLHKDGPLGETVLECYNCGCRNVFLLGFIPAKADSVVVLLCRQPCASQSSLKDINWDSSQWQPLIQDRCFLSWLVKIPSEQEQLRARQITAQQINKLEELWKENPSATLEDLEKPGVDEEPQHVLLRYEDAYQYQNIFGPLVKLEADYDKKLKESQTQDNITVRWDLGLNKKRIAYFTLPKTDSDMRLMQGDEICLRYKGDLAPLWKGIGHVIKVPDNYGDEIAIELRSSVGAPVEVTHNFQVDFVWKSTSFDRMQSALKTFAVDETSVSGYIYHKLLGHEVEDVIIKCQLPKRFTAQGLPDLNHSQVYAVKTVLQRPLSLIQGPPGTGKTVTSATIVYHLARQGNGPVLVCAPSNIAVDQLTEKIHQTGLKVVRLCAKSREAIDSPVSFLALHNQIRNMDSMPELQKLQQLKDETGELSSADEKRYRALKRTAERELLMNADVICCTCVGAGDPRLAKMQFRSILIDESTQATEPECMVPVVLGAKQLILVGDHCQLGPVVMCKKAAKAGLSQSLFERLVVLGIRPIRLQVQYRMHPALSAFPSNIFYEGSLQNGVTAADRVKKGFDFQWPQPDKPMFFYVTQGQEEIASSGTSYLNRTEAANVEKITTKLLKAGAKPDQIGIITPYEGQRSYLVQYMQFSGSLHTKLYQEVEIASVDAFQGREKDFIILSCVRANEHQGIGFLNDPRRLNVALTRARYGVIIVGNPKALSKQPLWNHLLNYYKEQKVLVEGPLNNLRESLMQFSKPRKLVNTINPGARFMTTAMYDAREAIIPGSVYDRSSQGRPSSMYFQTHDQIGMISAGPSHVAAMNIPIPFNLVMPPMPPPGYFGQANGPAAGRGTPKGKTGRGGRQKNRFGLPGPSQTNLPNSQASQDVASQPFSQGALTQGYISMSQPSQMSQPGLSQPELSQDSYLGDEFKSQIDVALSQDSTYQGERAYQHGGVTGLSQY
# method.description: MST; biphasic, low-amplitude first phase; 25 mM HEPES-NaOH pH 7.2, 135 mM NaCl, 2 mM DTT, 1 mg/ml acetylated BSA, 0.1% NP40, 20 min; EMSA 20 C, MST 22 C (20 nM DNA); no nucleotide cofactor or Mg2+ unles
# assay.context: protein: recombinant; tags: GST and His tags removed (thrombin, TEV); residual ENLYFQ linker likely at C-terminus; label: 5' Alexa 647
parameter.measured: pKd
Entry type: numeric. Quantity: pKd, the -log10 of concentration in molar units.

Query: pKd lookup needed for AAAAAAAAAAAAAAAAAAAAAAAAAAAAAAAAAAA (ssDNA) [d(A)35-Alexa647] , thanks.
Response: 5.38
